Values were extracted from ChEMBL document CHEMBL1157539.

# Test system: Plasmodium falciparum
# Measurement Notes: GSK_TCMDC: Inhibition of Plasmodium falciparum Dd2 in whole red blood cells, using parasite LDH activity as an index of growth. Test compounds present at 2uM
# Assay type: functional
Binning scheme for Inhibition: class A: < 20%; class B: ≥ 20% and < 90%; class C: ≥ 90%

Below are worked cases with known answers.
Compound | Assigned Class
Nc1c2ccccc2nc2cc(C(F)(F)F)ccc12 | class B
O=C(/C=C/c1ccc(C(F)(F)F)cc1)NCCCCCN1CCCN(C(=O)Nc2cccc(Cl)c2)CC1 | class A

Task: Assign a category based on measured Inhibition for O=C(/C=C/c1ccc(Cl)c(Cl)c1)NCCCCCN1CCCN(C(=O)Nc2ccc(C(F)(F)F)cc2)CC1 and give only the class name.
Result: class A

Task: Assign a category based on measured Inhibition for CCCN1CCC(c2c[nH]c3ccc(NC(=O)Nc4cccc(Cl)c4Cl)cc23)CC1 and give only the class name.
Result: class A

Task: Assign a category based on measured Inhibition for COc1ccc(-c2ccc(NC(=O)c3ccc(C#N)cc3)cc2)cc1CN1CCCN(C)CC1.O=C(O)C(F)(F)F and give only the class name.
Result: class B

Task: Assign a category based on measured Inhibition for CCc1ccc(N2C(N)=NC(N)=NC2(C)C)cc1.Cl and give only the class name.
Result: class A

Task: Assign a category based on measured Inhibition for CCOc1ccc(Br)cc1/C=C/C(=O)Nc1ccc2c(c1)CCCN(C)C2.O=C(O)C(F)(F)F and give only the class name.
Result: class A

###

# Test system: Plasmodium falciparum
# Measurement Notes: GSK_TCMDC: Inhibition of Plasmodium falciparum Dd2 in whole red blood cells, using parasite LDH activity as an index of growth. Test compounds present at 2uM
# Format: functional
Quick reference: Inhibition of the listed items.
Output spec: scalar in %, unitless text.

Molecule | Target Of Assay | Property Name | Experimental Value
Cc1cc2c(cc1C(F)(F)F)N(C(=O)Nc1cnc(OCCN(C)C)c(C(F)(F)F)c1)CC2 | Plasmodium falciparum | Inhibition | 25
Cc1cc(C(=O)N[C@H]2CCN(Cc3ccc(OCCCN(C)C)cc3)C2)ccc1Br.O=C(O)C(F)(F)F | Plasmodium falciparum | Inhibition | 62
O=C(O)C(F)(F)F.O=c1cc(N2CCCNCC2)c(Cl)nn1Cc1ccc(NS(=O)(=O)c2ccc(Oc3ccccc3)cc2)cc1 | Plasmodium falciparum | Inhibition | 0
Cc1cc(Nc2cccc(C(F)(F)F)c2)nc(NCc2ccccc2)n1 | Plasmodium falciparum | Inhibition | 95

Task: Value lookup for Inhibition; key = COc1cc2cc(-c3nc4ccccc4[nH]3)c(N)nc2cc1OC.Cl
Result: 100

###

# Tested on: HepG2
# Measurement Notes: GSK_TCMDC: Percent inhibition of human HepG2 cell line. Test compounds present at 10uM.
# Type: functional
Quick reference: Inhibition of the listed items.
Output spec: scalar in %, unitless text.

Molecule | Inhibition [%]
Cl.O=C1COc2ccc(S(=O)(=O)N3CCC[C@@H]3CCN3CCC(c4c[nH]c5cnccc45)CC3)cc2N1 | 0
Cc1cc(CNCCCCCCNCc2cccc([N+](=O)[O-])c2)ccc1O | 13
O=C(Nc1ccc(F)cc1F)NC1CCN(c2ccnc3cc(Cl)ccc23)C1.O=C(O)C(F)(F)F (stereo not drawn) | 25
CN(C)c1ccnc2ccc(NC(=O)Nc3ccnc4ccccc34)cc12 | 15
Cc1c(Cl)ccc2sc(N3CCN(C(=O)c4ccc([N+](=O)[O-])o4)CC3)nc12 | 0

Task: Value lookup for Inhibition; key = CC(=O)Nc1nc(C(=O)Nc2cccc(-c3cccc(-c4nc5cccc(C)c5[nH]4)c3)c2)cs1
Result: 28

Task: Value lookup for Inhibition; key = COC(=O)c1cc(OC)c(OC)cc1NC(=O)NC12CC3CC(CC(C3)C1)C2
Result: 6
